assayed system: T1, AAV9 (adeno-associated virus 9)
T1 construct: also called adeno-associated virus serotype 9
experiment notes: SPR, AAV amine-coupled to CM5 chip;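 note: nanobodies flowed as analyte at seven concentrations spanning 1–100 nM over immobilized AAV (500–800 RU), kinetic constants derived by fitting the binding curves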
Kd by entry:
Numbers only here, please. The scale is µM.

- binder: "A4-083 (VHH) VHH: VQLQESGGGLVQTGGSLKLSCAASGSRFSLNTMGWYRQAPRKQREFVAAVTRGGNTNYGDFVKGRFTISRDNAKNTVYLQMNSLRPEDTAVYYCHVDELRESSWTTSNLWGQGTQVTVSS"
  readout label: "Kd"
  reported: 0.0923
- binder: "A4-085 (VHH) VHH: VQLQESGGGLVQPGGSLRLSCAASGSRFSLNTMGWYRQAPGKQREFVAAVTRGGNTNYGDFVKGRFTISRDNAKNTVYLQMNSLRPEDTAVYYCHVDELRESSWTTSNLWGQGTQVTVSS"
  readout label: "Kd"
  reported: 0.223
- binder: "A4-056 (VHH) VHH: VQLQESGGGLVQPGGSLRLSCAASGSAFSINTMGWYRQAPGKQREKVAAVTRGGSTNYADSVKGRFTISRDNAKNTVYLQMNSLRPEDTAVYYCHVDEVRQSSWTTSNLWGQGTQVTVSS"
  readout label: "Kd"
  reported: 0.0969

We now examine a further binder.
Query string: Quick one: Kd of A4-090 (VHH) VHH: VQLQESGGGLVQPGGSLRLSCVASGSRFIINTMGWYRQAPGKQRELVATFTRGGNTNYAESVKGRFTISRDNGKSTVYLQMNSLRPEDTAVYYCHVDEVRESTWTTSNLWGQGTQVTVSS ?
Result string: 0.0249
